The compounds listed here are annotated with their IC50.
# target: Cholesteryl ester transfer protein (Oryctolagus cuniculus, UniProt P22687)
# Sequence (P22687 whole entry): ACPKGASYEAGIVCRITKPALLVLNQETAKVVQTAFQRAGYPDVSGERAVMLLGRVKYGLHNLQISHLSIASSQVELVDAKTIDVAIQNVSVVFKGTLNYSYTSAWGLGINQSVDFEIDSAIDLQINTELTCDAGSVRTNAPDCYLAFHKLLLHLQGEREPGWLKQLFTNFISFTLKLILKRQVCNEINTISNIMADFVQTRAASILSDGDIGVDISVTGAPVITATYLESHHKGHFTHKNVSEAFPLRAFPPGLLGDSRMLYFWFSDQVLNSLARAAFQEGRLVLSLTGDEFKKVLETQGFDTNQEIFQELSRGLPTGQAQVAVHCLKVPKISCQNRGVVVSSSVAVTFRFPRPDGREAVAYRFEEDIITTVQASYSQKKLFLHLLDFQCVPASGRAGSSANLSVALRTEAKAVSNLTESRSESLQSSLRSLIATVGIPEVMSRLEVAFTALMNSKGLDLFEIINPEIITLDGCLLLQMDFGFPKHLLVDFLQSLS
# method: Inhibition of CETP in rabbit serum after 1 hr by fluorescent cholesteryl esters transfer assay
# measurement context: read-out: IC50
# value in nM; strip the unit string

See these solved cases before continuing.
OC(CN(Cc1cccc(-c2ccccc2)c1)c1cccc(Oc2ccccc2)c1)C(F)(F)F (centres undefined)    4420
CCc1cc(Oc2cccc(N(Cc3ccc(C(F)(F)F)cc3F)C[C@@H](O)C(F)(F)F)c2)ccc1Cl    40
OC(CN(Cc1cccc(Oc2cccc(C(F)(F)F)c2)c1)c1cccc(F)c1)C(F)(F)F (centres undefined)    1.2
CCc1cc(Oc2cccc(N(Cc3cccc(C(F)(F)C(F)(F)F)c3)C[C@@H](O)C(F)(F)F)c2)ccc1Cl    45
OC(CN(Cc1cccc(OC(F)(F)F)c1)c1ccccc1Oc1ccccc1)c1ccc(C(F)(F)F)cc1 (centres undefined)    18000
OC(CN(Cc1cccc(OC(F)(F)C(F)F)c1)c1cccc(Oc2cccc(Cl)c2Cl)c1)C(F)(F)F (centres undefined)    30

Switching to the query record.
// query IC50 value for entry `CCCCCCCCOC(=O)c1ccc2c(c1)Nc1cc3ccccc3cc1N2` 60300

* * *

# target: Cholesteryl ester transfer protein (Oryctolagus cuniculus, UniProt P22687)
# method: Inhibition of CETP in rabbit serum after 1 hr by fluorescent cholesteryl esters transfer assay
# measurement context: read-out: IC50
measurement type: pIC50
Please keep in mind that pIC50 is minus log10 of the molar concentration; only the number is needed.

Before answering, review these 3 worked examples.
CC(C)(C)Oc1cccc(CN(CC(O)C(F)(F)F)c2cccc(Oc3ccccc3)c2)c1 (centres undefined)    6.18
OC(CN(Cc1cccc(OC(F)(F)C(F)F)c1)c1cccc(Oc2ccccc2Cl)c1)C(F)(F)F (centres undefined)    6.52
CN(C)c1cccc(Oc2cccc(N(Cc3cccc(OC(F)(F)C(F)F)c3)CC(O)C(F)(F)F)c2)c1 (centres undefined)    6.70

What value of pIC50 has been reported for the following molecule? OC(CN(Cc1cccc(SC(F)(F)F)c1)c1cccc(Oc2ccccc2)c1)C(F)(F)F (centres undefined) 6.41

Queued: OC(CN(Cc1cccc(C(F)(F)F)c1)c1cccc(F)c1)C(F)(F)F (centres undefined) 4.40

Same lookup for OC(CN(Cc1ccc2c(c1)OC(F)(F)C(F)(F)O2)c1cccc(Oc2ccccc2)c1)C(F)(F)F (centres undefined) , please. 4.92

Same thing, different molecule: OC(CN(Cc1cccc(OC(F)(F)C(F)F)c1)c1cccc(Oc2ccc(OC(F)(F)F)cc2)c1)C(F)(F)F (centres undefined) 6.40
